System: LXRb:RXRa (NR concentration 270 nM, RXRa partner concentration 90 nM)
Assay: PBM binding z-score (relative to random genomic background probes); higher = stronger binding; sequences stand for … in GC…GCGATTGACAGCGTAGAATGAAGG
Please note: y applies when PBM binding z-score is 0.2 or greater, and n applies otherwise.

Example entries begin here.
sequenceChain: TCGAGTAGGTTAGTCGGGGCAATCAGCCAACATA
classLabel: y
--
sequenceChain: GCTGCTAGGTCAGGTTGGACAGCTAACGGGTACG
classLabel: n
--
sequenceChain: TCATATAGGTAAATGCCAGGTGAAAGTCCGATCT
classLabel: y
--
sequenceChain: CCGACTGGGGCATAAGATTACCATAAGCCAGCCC
classLabel: n

Field: next sequence
// query Kindly determine if PBM binding z-score recorded for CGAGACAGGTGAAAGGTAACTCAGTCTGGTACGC is above or exactly 0.2.
// result y

====

Tested on: THRa:RXRa (NR concentration 90 nM, RXRa partner concentration 90 nM)
Experiment: PBM binding z-score (relative to random genomic background probes); higher = stronger binding; sequences stand for … in GC…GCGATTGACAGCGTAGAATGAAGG
In this section we review reported PBM binding z-score values for a set of sequences.
Keep it simple and answer with nothing but the number.

Worked cases, answers included:
sequenceChain: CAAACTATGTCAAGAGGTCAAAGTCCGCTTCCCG
PBM binding z-score: 3.65
//
sequenceChain: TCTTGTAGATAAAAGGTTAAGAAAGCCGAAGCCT
PBM binding z-score: 1.14
//
sequenceChain: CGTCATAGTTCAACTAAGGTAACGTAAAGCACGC
PBM binding z-score: 5.14
//
sequenceChain: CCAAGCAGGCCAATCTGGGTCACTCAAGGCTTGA
PBM binding z-score: 3.74
//
sequenceChain: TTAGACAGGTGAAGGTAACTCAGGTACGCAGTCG
PBM binding z-score: 1.48

// query Find the recorded PBM binding z-score belonging to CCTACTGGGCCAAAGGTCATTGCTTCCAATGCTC and report it.
// result 3.37

// query Try the sequence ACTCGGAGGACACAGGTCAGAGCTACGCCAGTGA
// result 2.57

// query Repeat with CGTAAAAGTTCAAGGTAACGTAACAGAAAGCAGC
// result 2.92

// query Next entry: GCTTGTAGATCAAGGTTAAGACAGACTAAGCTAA
// result 1.27

// query For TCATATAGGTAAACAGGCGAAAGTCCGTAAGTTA then?
// result 0.323

// query // next record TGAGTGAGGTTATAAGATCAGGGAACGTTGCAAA
// result 1.59

// query Same read-out for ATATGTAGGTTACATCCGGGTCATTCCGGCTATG ?
// result 3.61

// query Also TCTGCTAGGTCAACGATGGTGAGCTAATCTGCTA , if possible.
// result 2.68

// query Continue with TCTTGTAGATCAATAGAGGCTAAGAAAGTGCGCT
// result 0.676

// query Could you do the same for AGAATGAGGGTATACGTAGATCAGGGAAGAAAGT , please?
// result 0.252

// query Subsequent entry: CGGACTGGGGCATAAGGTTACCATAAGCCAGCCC
// result 2.18

// query # iterate: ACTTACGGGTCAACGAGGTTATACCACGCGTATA
// result 3.97

// query And the next one, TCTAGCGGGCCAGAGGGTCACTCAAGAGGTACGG ?
// result 1.51

// query Then this sequence: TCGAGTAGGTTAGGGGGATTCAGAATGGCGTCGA
// result 0.871

// query Now try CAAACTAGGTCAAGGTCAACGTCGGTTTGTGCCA .
// result 4.62

// query // query: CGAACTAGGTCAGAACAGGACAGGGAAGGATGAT
// result 3.92

// query And for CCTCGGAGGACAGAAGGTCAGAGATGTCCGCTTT ?
// result 2.05

====

Test system: PXR:RXRa (NR concentration 270 nM, RXRa partner concentration 90 nM)
Experiment: PBM binding z-score (relative to random genomic background probes); higher = stronger binding; sequences stand for … in GC…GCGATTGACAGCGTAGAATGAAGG
valueType: PBM binding z-score

Reference set, count: 3
sequenceChain: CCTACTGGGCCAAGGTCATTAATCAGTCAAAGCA
PBM binding z-score: 3.16
--
sequenceChain: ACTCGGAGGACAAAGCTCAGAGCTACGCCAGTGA
PBM binding z-score: -0.902
--
sequenceChain: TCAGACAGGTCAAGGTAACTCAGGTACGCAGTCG
PBM binding z-score: 2.46

// query Quick one: PBM binding z-score of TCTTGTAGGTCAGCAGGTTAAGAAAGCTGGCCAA ?
// result 1.95

// query Now the sequence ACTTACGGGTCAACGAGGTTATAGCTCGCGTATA
// result 5.45

// query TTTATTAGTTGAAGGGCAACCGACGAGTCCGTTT , same question.
// result 0.818

// query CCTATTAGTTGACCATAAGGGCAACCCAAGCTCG ?
// result 1.12

// query Try this sequence next: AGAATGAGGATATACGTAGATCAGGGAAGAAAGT
// result -0.403

// query Same question, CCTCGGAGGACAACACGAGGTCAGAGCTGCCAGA this time
// result 3.06

// query // same read-out, input: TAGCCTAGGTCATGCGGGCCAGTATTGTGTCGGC
// result 1.34

// query One more sequence: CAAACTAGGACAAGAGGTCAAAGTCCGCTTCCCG
// result 5.45

// query Now give it for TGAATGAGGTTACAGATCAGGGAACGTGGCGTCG too.
// result 0.892

// query Please do the same for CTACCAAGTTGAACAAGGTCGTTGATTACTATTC as well.
// result 2.65

// query Subsequent entry: CGAACTTGGTCAGAACAGGACAGTGAAGGATGAT
// result -0.41

// query Moving on to the next sequence: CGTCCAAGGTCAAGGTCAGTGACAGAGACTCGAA
// result 5.25

// query Also check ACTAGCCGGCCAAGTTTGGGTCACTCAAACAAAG
// result 0.729

// query Can you check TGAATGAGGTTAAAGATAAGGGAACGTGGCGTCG next?
// result 1.37

// query Please do the same for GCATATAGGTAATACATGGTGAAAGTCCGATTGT as well.
// result 0.00943

// query Subsequent entry: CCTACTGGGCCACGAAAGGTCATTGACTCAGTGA
// result 5.15

// query Please give the result for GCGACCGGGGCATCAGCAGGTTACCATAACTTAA too.
// result 0.411

// query Would you kindly repeat that for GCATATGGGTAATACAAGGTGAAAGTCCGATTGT ?
// result 0.344

// query // query: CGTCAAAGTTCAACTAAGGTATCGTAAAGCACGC
// result 5.09

// query Query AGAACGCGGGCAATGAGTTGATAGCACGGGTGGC next
// result -0.0595

// query Moving on to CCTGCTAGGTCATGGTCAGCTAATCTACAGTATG
// result 1.41

// query Lookup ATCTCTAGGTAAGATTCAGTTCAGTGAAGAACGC
// result 0.994

====

Tested on: THRa homodimer (NR concentration 90 nM)
Assay: PBM binding z-score (relative to random genomic background probes); higher = stronger binding; sequences stand for … in GC…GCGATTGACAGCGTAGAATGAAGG
Label rule, in plain words: PBM binding z-score of 0.8 and up is t, under 0.8 is f.

Recorded results for 10 sequences are shown here.
sequenceChain: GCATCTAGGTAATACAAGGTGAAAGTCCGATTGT
classLabel: t

sequenceChain: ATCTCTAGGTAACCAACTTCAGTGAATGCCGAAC
classLabel: t

sequenceChain: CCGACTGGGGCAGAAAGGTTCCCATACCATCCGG
classLabel: f

sequenceChain: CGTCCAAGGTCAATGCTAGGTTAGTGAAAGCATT
classLabel: t

sequenceChain: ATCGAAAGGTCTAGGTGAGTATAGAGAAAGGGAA
classLabel: f

sequenceChain: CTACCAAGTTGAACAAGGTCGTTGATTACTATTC
classLabel: t

sequenceChain: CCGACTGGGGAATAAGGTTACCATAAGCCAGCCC
classLabel: t

sequenceChain: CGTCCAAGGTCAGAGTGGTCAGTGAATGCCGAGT
classLabel: t

sequenceChain: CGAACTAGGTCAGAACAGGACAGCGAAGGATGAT
classLabel: f

sequenceChain: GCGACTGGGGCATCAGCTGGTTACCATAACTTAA
classLabel: f

// query Tell me whether PBM binding z-score is at least 0.8 here: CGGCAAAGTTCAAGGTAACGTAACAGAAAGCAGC
// result f

// query Moving on to the next sequence: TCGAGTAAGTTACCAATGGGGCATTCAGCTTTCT
// result f
